Value source: paper PMC11062922

test system: EPHA4; set-up: species or system human, MV4-11 + K-562 + COLO205 + SK-N-BE2 + OVCAR-8; details: read-out: apparent Kd; compound concentrations:100 nM and 1000 nM (sheet 'Samples'); n = 1
OBSERVABLE: potency estimated from few doses (nM)
Express your answer in nM, writing the number without its unit.

Use the examples below as a reference point.
{"columns": ["COMPOUND", "potency estimated from few doses (nM)"],
 "data": [
  ["CCN(CC)CCOc1ccc(Nc2ncc3cc(-c4c(Cl)cccc4Cl)c(=O)n(C)c3n2)cc1 [SB-601273]", 162],
  ["Cl.Cl.NCC(C(=O)Nc1cc(Br)c(-c2ccnc3[nH]ccc23)s1)c1ccccc1.NCC(C(=O)Nc1cc(Br)c(-c2ccnc3[nH]ccc23)s1)c1ccccc1 (stereo not shown) [GSK1269851A]", 510],
  ["Cc1ccc2c(-c3ccncc3)c(-c3ccc(F)cc3)nn2c1.Cl [GW461484A]", 550],
  ["CN1C[C@@H]2Cn3c(c(C4=C(c5cn(C)c6ccccc56)C(=O)NC4=O)c4ccccc43)C[C@H]2C1.Cl [RO0320234-001]", 321],
  ["O=C1NC(=O)C(N2CCc3ccccc32)=C1c1ccccc1Cl [SB-373598]", 387],
  ["COc1cc2ncn(-c3cc(OCCCc4ccccc4)c(C(N)=O)s3)c2cc1OC [GSK205189A]", 1250]
]}

API: the following record is the query input.
Record request: potency estimated from few doses value, item NCCNS(=O)(=O)c1ccc(-c2ccnc3[nH]ccc23)cc1 [GSK977617A]
287
